- Tested on: Human immunodeficiency virus 1
- assay.summary: Antiviral activity in cells infected with wild-type HIV1 H93B in presence of NHS
- Assay type: functional
- conditions.used: Human immunodeficiency virus 1, H93B; read-out: CIC95
// returns NOT MET unless IC95 is strictly below 300 nM, in which case MET

Use these answered entries as a reference point.
[
  {
    "compound": "CC(C)(C)NC(=O)[C@@H]1CN(Cc2cccnc2)CCN1C[C@@H](O)C[C@@H](Cc1ccccc1)C(=O)N[C@H]1c2ccccc2C[C@H]1O",
    "class.label": "MET"
  },
  {
    "compound": "CC(C)(C)OC(=O)N[C@@H](Cc1ccccc1)[C@@H](O)C[C@]1(Cc2ccccc2)N=CC(C2c3ccccc3[C@H]3NC(=O)OC23)=C1O (stereo not given in full)",
    "class.label": "NOT MET"
  },
  {
    "compound": "O=C(N[C@@H](Cc1ccccc1)[C@@H](O)C[C@]1(Cc2ccccc2)N=CC([C@H]2c3ccccc3C[C@H]2O)=C1O)O[C@H]1CCOC1",
    "class.label": "MET"
  },
  {
    "compound": "O=C1N[C@@H]2c3ccccc3C(C3=C(O)[C@](Cc4ccccc4)(C[C@H](O)[C@H](Cc4ccccc4)NC(=O)O[C@H]4CCOC4)N=C3)C2O1 (stereo not given in full)",
    "class.label": "NOT MET"
  }
]

From here, focus on the item given below.
Problem: Please determine if NC(=O)C[C@H]1CC(C2=C(O)[C@](Cc3ccccc3)(C[C@H](O)[C@H](Cc3ccccc3)NC(=O)O[C@H]3CCOC3)N=C2)c2ccccc21 (stereo not given in full) is below 300 nM in terms of IC95.
Solution: NOT MET

* * *

- study.target: Human immunodeficiency virus type 1 protease (Human immunodeficiency virus 1, UniProt Q72874)
- assay.summary: Inhibitory activity against isolated wild-type HIV1 protease
assay.readout: pIC50
Bear in mind: pIC50 is minus log10 of a mol/L concentration; give just that figure.

Worked examples, 2 compounds total:
[
  {
    "molecular.string": "O=C(N[C@@H](Cc1ccccc1)[C@@H](O)C[C@]1(Cc2ccccc2)N=CC([C@H]2c3ccccc3C[C@H]2O)=C1O)O[C@H]1CCOC1",
    "pIC50": 8.70
  },
  {
    "molecular.string": "O=C(N[C@@H](Cc1ccccc1)[C@@H](O)C[C@]1(Cc2ccccc2)N=CC([C@@H]2CNC(=O)c3ccccc32)=C1O)O[C@H]1CCOC1",
    "pIC50": 8.24
  }
]

// moving on: another record for pIC50
Problem: Indicate the recorded pIC50 value for this compound: "NC(=O)O[C@@H]1Cc2ccccc2[C@@H]1C1=C(O)[C@](Cc2ccccc2)(C[C@H](O)[C@H](Cc2ccccc2)NC(=O)O[C@H]2CCOC2)N=C1"
Solution: 8.70

* * *

Listed here are molecules together with their documented Ratio CIC95/IC50.
- study.target: UniProt:Q72874
- assay.summary: Ratio of inhibitory effect against HIV1 protease in cellular over isolated enzyme assay
- Assay type: functional
No unit in the answer, only the number.

Worked examples, 5 molecules total:
[
  {
    "molecule": "CC(C)(C)OC(=O)N[C@@H](Cc1ccccc1)[C@@H](O)C[C@]1(Cc2ccccc2)N=CC(C2c3ccccc3[C@H]3NC(=O)OC23)=C1O (stereo partly specified)",
    "assay.readout": "Ratio CIC95/IC50",
    "experimental.result": 80
  },
  {
    "molecule": "NC(=O)O[C@@H]1Cc2ccccc2[C@@H]1C1=C(O)[C@](Cc2ccccc2)(C[C@H](O)[C@H](Cc2ccccc2)NC(=O)O[C@H]2CCOC2)N=C1",
    "assay.readout": "Ratio CIC95/IC50",
    "experimental.result": 125
  },
  {
    "molecule": "CC(C)(C)CC(=O)N[C@@H](Cc1ccccc1)[C@@H](O)C[C@]1(Cc2ccccc2)N=CC(C2c3ccccc3[C@H]3NC(=O)OC23)=C1O (stereo partly specified)",
    "assay.readout": "Ratio CIC95/IC50",
    "experimental.result": 32.5
  },
  {
    "molecule": "O=C(N[C@@H](Cc1ccccc1)[C@@H](O)C[C@]1(Cc2ccccc2)N=CC([C@@H]2CNC(=O)c3ccccc32)=C1O)O[C@H]1CCOC1",
    "assay.readout": "Ratio CIC95/IC50",
    "experimental.result": 137
  },
  {
    "molecule": "O=C1N[C@@H]2c3ccccc3C(C3=C(O)[C@](Cc4ccccc4)(C[C@H](O)[C@H](Cc4ccccc4)NC(=O)O[C@H]4CCOC4)N=C3)C2O1 (stereo partly specified)",
    "assay.readout": "Ratio CIC95/IC50",
    "experimental.result": 909
  }
]

// moving on: another record for Ratio CIC95/IC50
Problem: Output reported Ratio CIC95/IC50 of the molecule "O=C(N[C@@H](Cc1ccccc1)[C@@H](O)C[C@]1(Cc2ccccc2)N=CC([C@H]2c3ccccc3C[C@H]2O)=C1O)O[C@H]1CCOC1" on UniProt:Q72874.
Solution: 50

* * *

- System: Human immunodeficiency virus 1
- assay.summary: Antiviral activity in cells infected with wild-type HIV1 1026-60C mutant in presence of NHS
- Assay type: functional
- conditions.used: Human immunodeficiency virus 1, 1026-60C; read-out: CIC95
assay.readout: IC95 (µM)
State the answer as a number, implicitly in µM.

[
  {
    "molecule": "CC(C)(C)OC(=O)N[C@@H](Cc1ccccc1)[C@@H](O)C[C@]1(Cc2ccccc2)N=CC(C2c3ccccc3[C@H]3NC(=O)OC23)=C1O (stereo not given in full)",
    "measurement.units": "µM",
    "experimental.result": 1.25
  },
  {
    "molecule": "O=C(N[C@@H](Cc1ccccc1)[C@@H](O)C[C@]1(Cc2ccccc2)N=CC([C@H]2c3ccccc3C[C@H]2O)=C1O)O[C@H]1CCOC1",
    "measurement.units": "µM",
    "experimental.result": 0.312
  },
  {
    "molecule": "O=C1N[C@@H]2c3ccccc3C(C3=C(O)[C@](Cc4ccccc4)(C[C@H](O)[C@H](Cc4ccccc4)NC(=O)O[C@H]4CCOC4)N=C3)C2O1 (stereo not given in full)",
    "measurement.units": "µM",
    "experimental.result": 0.312
  }
]

Problem: Indicate the recorded IC95 value for this molecule: NC(=O)C[C@H]1CC(C2=C(O)[C@](Cc3ccccc3)(C[C@H](O)[C@H](Cc3ccccc3)NC(=O)O[C@H]3CCOC3)N=C2)c2ccccc21 (stereo not given in full)
Solution: 0.625

Problem: Indicate the recorded IC95 value for this molecule: "CC(C)(C)NC(=O)[C@@H]1CN(Cc2cccnc2)CCN1C[C@@H](O)C[C@@H](Cc1ccccc1)C(=O)N[C@H]1c2ccccc2C[C@H]1O"
Solution: 0.4
